Tested on: MS2 coat protein
Assay: apparent Kd, MS2 coat protein; higher = weaker binding; RNA-MaP array; tryptophan 2.4 mM where present
Settings: ligand present: tryptophan; designed as: ON switch for tryptophan
Answer each item with its documented apparent Kd.
Your answer should be a plain number; it is taken to be in nM.

Exercise: Missing value: apparent Kd, MS2 coat protein, entry GCAUCCUAGUCGGCCGCCACUACAACAUGAGGAUCACCCAUGUGUGGGAGAUCCGUCCUACGAAGUAGGACCGGGACUAGGAUGC . Fill in?
Solution: 444

Exercise: What about this sequence? AGCCGGAUUACGGCCGCCACUGUAGACGUGACGAAAGUCGCGUCAACAUGAGGAUCACCCAUGUACAGGACCGGGUGGUCGGGCG
Solution: 27.5

Exercise: What about this sequence? AAGACCAGGAGGUGAUCCUAACUGGUCCAACGAGGACCGGUACGGCCGCCACUCGAAUAAACAUGAGGAUCACCCAUGUAAUAAU
Solution: 225

Exercise: What about this sequence? GAUAUAUAGGCGGCCGCCACUGAUUUUCAUAUAUAUAUAACAUGAGGAUCACCCAUGUAGAUAUACAGGACCGGGCCUAUAUAUU
Solution: 13.4

Exercise: What about this sequence? GGUUACUCUACGGCCGCCACUGUUAAAUAAUAAACCUGUACAUAAACAUGAGGAUCACCCAUGUACAGGACCGGGUAGUGUAACC
Solution: 16.1

Exercise: What about this sequence? UCGUUUUAGUCGGCCGCCACUGUGAGCAUGGUUAACAUGAGGAUCACCCAUGUCCCGUACUAUAACAGGACCGGGACGUAGUUGC
Solution: 22.8

Exercise: What about this sequence? AUUCAUGGAAACAUGACAUAGGGAUCCGGUCGAGGACCGGUACGGCCGCCACUCGUUUGGAGGCACAUGAGGAUCACCCAUGUUA
Solution: 67.5

Exercise: What about this sequence? CUAAAUAUAUCGGCCGCCACUUACUCAUGAGGUAACAACAUGAGGAUCACCCAUGUUUGAGGAUCAAGGACCGGGAUAUAUUUAG
Solution: 19

Exercise: What about this sequence? ACAUGAGGAUCACCCAUGUGCAUGAUGAUCCGAGGACCGGUACGGCCGCCACUCGUCAUGAUGAUCUUUCAUGUUUGUCGCGCGC
Solution: 429
